Target: NMDA receptor subunits 1A/2C (Rattus norvegicus, UniProt P35439+Q00961)
Construct: expressed in transfected cells; host or cells: Xenopus laevis oocytes (cRNA injection; clones from Dr. P. H. Seeburg)
Sequence (Q00961 20-1237, other chains not shown): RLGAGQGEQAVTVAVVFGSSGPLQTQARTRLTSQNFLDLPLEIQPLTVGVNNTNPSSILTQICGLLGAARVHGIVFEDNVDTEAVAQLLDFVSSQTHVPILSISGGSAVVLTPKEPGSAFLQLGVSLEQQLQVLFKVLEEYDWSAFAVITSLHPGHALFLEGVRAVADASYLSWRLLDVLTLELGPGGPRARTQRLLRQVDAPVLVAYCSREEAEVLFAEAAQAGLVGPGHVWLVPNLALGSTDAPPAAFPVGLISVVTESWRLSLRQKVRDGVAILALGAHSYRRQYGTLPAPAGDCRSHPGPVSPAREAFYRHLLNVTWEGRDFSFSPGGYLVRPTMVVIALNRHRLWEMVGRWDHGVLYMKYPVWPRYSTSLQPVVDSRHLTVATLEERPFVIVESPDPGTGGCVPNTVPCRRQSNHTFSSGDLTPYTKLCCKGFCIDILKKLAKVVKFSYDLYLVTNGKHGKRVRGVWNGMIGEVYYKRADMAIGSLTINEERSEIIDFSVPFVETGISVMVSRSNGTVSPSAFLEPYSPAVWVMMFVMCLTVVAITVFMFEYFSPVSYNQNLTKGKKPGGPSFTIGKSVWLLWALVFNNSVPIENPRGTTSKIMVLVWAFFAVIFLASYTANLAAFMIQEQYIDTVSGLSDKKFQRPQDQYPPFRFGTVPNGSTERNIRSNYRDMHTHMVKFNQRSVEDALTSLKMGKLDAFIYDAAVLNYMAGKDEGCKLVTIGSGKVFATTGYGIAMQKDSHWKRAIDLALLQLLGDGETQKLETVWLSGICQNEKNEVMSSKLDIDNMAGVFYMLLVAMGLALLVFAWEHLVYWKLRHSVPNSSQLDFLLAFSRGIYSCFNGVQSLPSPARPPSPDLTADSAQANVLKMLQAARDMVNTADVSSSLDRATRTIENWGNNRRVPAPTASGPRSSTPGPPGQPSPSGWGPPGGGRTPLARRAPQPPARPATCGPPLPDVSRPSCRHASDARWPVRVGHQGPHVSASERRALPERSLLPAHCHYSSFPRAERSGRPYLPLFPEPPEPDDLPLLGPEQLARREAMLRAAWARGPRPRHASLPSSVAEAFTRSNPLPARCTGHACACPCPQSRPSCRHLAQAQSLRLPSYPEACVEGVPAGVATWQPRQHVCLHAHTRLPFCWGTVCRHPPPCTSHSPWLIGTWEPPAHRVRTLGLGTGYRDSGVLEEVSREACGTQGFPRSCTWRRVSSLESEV
Experiment: Electrophysiological assay at NMDA receptor subunits expressed in Xenopus oocytes, 1A/2C
Type: cell-based
Conditions: Xenopus oocytes; glutamate 100 μm and glycine 1-100 μm; read-out: Subunits IC50, 1A/2C
pIC50: −log10 of the molar value. Where a name gives a salt, the structure may show the parent alone.
Listing: pIC50 of selected compounds

Answered cases to consult:
>  <Compound>
O=c1[nH]c2cc(OCCN3CCC(Cc4ccccc4)CC3)ccc2o1 [Ex. 181]

>  <pIC50>
3.85

$$$$
>  <Compound>
O=c1[nH]c2ccc(OCCN3CCC(Cc4ccccc4)CC3)cc2[nH]1 [Ex. 59]

>  <pIC50>
< 4.00

$$$$
>  <Compound>
c1ccc(CCN2CCC(Cc3ccccc3)CC2)cc1 [Ex. 83, hydrochloride]

>  <pIC50>
< 4.00

$$$$
>  <Compound>
Cc1ccc(CC2CCN(CCOc3ccc(O)cc3)CC2)cc1 [Ex. 115, hydrochloride]

>  <pIC50>
3.66

$$$$
>  <Compound>
O=c1[nH]c2ccc(OCCN3CCC(Cc4ccc(Cl)cc4)CC3)cc2[nH]1 [Ex. 80]

>  <pIC50>
4.15

$$$$

State its pIC50: O=[N+]([O-])c1ccc(OCCN2CCC(Cc3ccccc3)CC2)cc1 [Ex. 12, hydrobromide]
< 4.00

State its pIC50: Cc1ccc(CC2CCN(CCOc3ccc4cc(O)ccc4c3)CC2)cc1 [Ex. 192]
< 3.52

State its pIC50: Nc1ccc(OCCN2CCC(Cc3ccccc3)CC2)cc1[N+](=O)[O-] [Ex. 56]
< 4.00

State its pIC50: CCc1ccc(CC2CCN(CCOc3ccc(O)cc3)CC2)cc1 [Ex. 120, hydrochloride]
< 3.52

State its pIC50: Fc1ccc(CC2CCN(CCOc3ccc(F)cc3)CC2)cc1 [Ex. 33, hydrochloride]
< 4.00

State its pIC50: Fc1ccc(CC2CCN(CCOc3ccc4[nH]c(=S)[nH]c4c3)CC2)cc1 [Ex. 175]
4.15

State its pIC50: O=[N+]([O-])c1ccccc1OCCN1CCC(Cc2ccc(Cl)cc2)CC1 [Ex. 73]
4.00

State its pIC50: Cl.Cl.Oc1ccc(OCCN2CCC(Cc3ccccn3)CC2)cc1 [Ex. 125, dihydrochloride]
< 3.52

State its pIC50: c1ccc(CC2CCN(CCCOc3ccccc3)CC2)cc1 [Ex. 2, 4-Benzyl-1-(3-phenoxypropyl)piperidine]
< 4.00

---

Molecular target: NMDA receptor subunits 1A/2B (Rattus norvegicus, UniProt P35439+Q00960)
Construct: expressed in transfected cells; host or cells: Xenopus laevis oocytes (cRNA injection; clones from Dr. P. H. Seeburg)
Sequence (Q00960 27-1482, other chains not shown): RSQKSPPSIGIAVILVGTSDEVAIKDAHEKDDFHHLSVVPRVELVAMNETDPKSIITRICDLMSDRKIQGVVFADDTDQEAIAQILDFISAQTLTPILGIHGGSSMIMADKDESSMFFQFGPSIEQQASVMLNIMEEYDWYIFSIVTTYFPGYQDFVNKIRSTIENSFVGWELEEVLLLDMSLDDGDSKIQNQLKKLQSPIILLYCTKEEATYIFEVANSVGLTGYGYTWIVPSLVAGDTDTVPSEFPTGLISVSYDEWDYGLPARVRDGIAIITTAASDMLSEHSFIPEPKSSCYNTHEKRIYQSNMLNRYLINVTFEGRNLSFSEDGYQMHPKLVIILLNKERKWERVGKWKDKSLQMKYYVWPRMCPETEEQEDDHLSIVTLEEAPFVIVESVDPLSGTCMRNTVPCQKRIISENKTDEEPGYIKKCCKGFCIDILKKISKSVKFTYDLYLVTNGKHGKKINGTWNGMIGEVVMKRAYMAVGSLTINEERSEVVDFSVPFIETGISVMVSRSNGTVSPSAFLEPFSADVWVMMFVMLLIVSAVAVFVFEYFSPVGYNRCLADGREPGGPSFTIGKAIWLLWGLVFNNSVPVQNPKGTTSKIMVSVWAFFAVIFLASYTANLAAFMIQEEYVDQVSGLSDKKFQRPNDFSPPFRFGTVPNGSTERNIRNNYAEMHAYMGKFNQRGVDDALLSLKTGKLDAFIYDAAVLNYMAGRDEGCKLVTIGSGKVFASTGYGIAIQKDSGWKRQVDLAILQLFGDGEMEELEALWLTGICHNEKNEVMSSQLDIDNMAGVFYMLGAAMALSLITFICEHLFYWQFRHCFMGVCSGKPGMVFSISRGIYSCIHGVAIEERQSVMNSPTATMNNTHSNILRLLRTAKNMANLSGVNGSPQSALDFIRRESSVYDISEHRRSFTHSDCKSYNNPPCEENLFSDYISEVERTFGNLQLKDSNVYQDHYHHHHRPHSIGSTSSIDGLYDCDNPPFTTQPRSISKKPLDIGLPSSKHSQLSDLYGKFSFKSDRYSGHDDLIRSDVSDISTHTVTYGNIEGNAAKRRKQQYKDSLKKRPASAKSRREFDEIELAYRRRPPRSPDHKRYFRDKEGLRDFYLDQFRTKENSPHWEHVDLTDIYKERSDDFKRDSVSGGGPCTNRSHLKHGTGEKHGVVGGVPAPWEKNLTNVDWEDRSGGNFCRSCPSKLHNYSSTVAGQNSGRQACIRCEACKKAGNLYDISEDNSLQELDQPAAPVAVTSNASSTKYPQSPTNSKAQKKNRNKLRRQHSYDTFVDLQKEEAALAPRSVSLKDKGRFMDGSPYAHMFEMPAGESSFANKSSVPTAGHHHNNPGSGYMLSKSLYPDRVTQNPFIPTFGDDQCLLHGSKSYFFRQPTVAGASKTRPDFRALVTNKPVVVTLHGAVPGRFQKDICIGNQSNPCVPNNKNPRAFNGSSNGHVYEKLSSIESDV
Assay: Electrophysiological assay at NMDA receptor subunits expressed in Xenopus oocytes, 1A/2B
Format: cell-based
Settings: Xenopus oocytes; glutamate 100 μm and glycine 1-100 μm; read-out: Subunits IC50, 1A/2B
Structures can show the parent of a compound that is named as a salt.
Listing: pIC50 of selected molecules
pIC50 here is simply -log10 of the concentration when that concentration is written in mol/L.

Answered cases to consult:
>  <Molecule>
OCCc1cccc(OCCN2CCC(Cc3ccc(Cl)cc3)CC2)c1

>  <Assay metric>
pIC50

>  <Measured number>
6.30

$$$$
>  <Molecule>
Oc1ccc(CCCN2CCC(Cc3ccc(Cl)cc3)CC2)cc1 [Ex. 107, hydrochloride]

>  <Assay metric>
pIC50

>  <Measured number>
7.52

$$$$
>  <Molecule>
CCc1ccc(CC2CCN(CCOc3ccc(O)cc3)CC2)cc1 [Ex. 120, hydrochloride]

>  <Assay metric>
pIC50

>  <Measured number>
7.70

$$$$
>  <Molecule>
c1ccc(OCCCCN2CCC(c3ccccc3)CC2)cc1

>  <Assay metric>
pIC50

>  <Measured number>
5.00

$$$$

State its pIC50: "c1ccc(CC2CCN(CCOc3cccc4cccnc34)CC2)cc1"
5.30

State its pIC50: "COc1ccccc1OCCN1CCC(Cc2ccccc2)CC1"
5.30

State its pIC50: "O=c1[nH]c2cccc(OCCN3CCC(Cc4ccc(Cl)cc4)CC3)c2[nH]1"
6.96

State its pIC50: Cc1cc(OCCN2CCC(Cc3ccc(F)cc3)CC2)ccc1O [Ex. 152, hydrochloride]
7.40

State its pIC50: "Nc1ccccc1OCCN1CCC(Cc2ccccc2)CC1"
6.52

State its pIC50: Clc1ccc(NC2CCN(CCCOc3ccccc3)CC2)cc1 [Ex. 40, hydrobromide]
5.52

State its pIC50: CC(C)c1ccc(CC2CCN(CCOc3ccc(O)cc3)CC2)cc1 [Ex. 131, hydrochloride]
7.30

State its pIC50: Fc1ccc(CC2CCN(CCOc3ccc(Cl)cc3)CC2)cc1 [Ex. 34, hydrochloride]
4.82

State its pIC50: Cl.O=Cc1cccc(OCCN2CCC(Cc3ccccc3)CC2)c1 [Ex. 15, hydrochloride]
5.92

src = patent US6124323A
